Taken from patent US20140308283A1.

Molecular target: T1, CAPRIN-1 protein expressed on the cell membrane surface of human cancer cell lines (human, UniProt Q14444 2-709)
T1 construct: whole, on cells; also called human CAPRIN-1; Cytoplasmic- and proliferation-associated protein 1
T1 sequence (looked up): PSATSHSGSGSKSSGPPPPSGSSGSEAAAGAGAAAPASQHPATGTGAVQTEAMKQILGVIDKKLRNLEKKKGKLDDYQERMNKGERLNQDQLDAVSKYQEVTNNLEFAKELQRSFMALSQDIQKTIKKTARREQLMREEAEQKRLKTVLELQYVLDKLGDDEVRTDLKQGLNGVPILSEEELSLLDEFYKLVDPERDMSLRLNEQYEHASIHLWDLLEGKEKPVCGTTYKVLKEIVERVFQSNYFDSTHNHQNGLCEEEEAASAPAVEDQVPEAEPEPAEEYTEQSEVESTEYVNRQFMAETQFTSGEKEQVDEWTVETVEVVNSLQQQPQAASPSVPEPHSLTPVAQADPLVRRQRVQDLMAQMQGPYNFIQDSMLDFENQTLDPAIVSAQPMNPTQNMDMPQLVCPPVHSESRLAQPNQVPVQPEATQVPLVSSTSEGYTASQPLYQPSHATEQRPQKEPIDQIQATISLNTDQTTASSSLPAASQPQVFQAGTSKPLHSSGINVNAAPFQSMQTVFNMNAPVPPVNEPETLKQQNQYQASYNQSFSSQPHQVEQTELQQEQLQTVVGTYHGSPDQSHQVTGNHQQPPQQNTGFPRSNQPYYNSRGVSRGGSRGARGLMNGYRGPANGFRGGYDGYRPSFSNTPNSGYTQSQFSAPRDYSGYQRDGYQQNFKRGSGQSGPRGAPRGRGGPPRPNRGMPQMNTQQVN
Experiment: flow cytometry on Capan-2, MIAPaCa-2, PANC-1 and BxPC-3 cells, vs isotype control
Experimental: Next, four pancreatic cancer cell lines (Capan-2, MIAPaCa-2, PANC-1, and BxPC-3) confirmed to have CAPRIN-1 gene expression were examined for their expression of CAPRIN-1 protein on the cell surface. 10⁶ cells of each cell line were centrifuged in each 1.5-ml microcentrifuge tube. […] After washing with PBS, the fluorescence intensity was measured using FACSCalibur (Becton, Dickinson and Company). […]
MEASUREMENT_LABEL: rate of increase in mean fluorescence intensity

Exercise: Tell me the measured rate of increase in mean fluorescence intensity of mouse monoclonal antibody #5 (antibody, V domains shown, Mouse hybridoma antibody; also called anti-CAPRIN-1 mouse monoclonal antibody #5) VH: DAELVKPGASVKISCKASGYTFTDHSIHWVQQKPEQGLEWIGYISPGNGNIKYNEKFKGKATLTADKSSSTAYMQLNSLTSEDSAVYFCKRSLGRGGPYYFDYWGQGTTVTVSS VL: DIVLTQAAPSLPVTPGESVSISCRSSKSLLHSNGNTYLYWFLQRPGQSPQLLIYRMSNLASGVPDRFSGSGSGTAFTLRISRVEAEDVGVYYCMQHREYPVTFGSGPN , please.
Key: ≥ 20%
